- Tested on: NCI-H322M lung
- ASSAY: NCI-60 one-dose screen, 48 h (100 = growth as untreated, 0 = no growth, -100 = all killed)
- MEASUREMENT_CONDITIONS: 10 µM unless noted
This is part of a sample that, as a whole, favours compounds with a hit. Of some 83,000 tested, about 20% had one in any assay. Calls of active or inactive are those of the source. The calls were made as follows: active = growth percent below 10; inactive = the rest.
# reported growth; entries follow

| SMILES_STRING | QUANTITY_MEASURED | EXPERIMENTAL_VALUE |
| --- | --- | --- |
| CCOC(=O)C(=CCC(C)C)C(=O)OCC | growth | 104% (inactive) |
| Clc1ccc(/C=N\N2CCCCCC2)cc1 | growth | 104% (inactive) |
| Clc1ccc(Nc2nc(Nc3ccc(Cl)cc3)nc(Nc3ccc(-c4cc(-c5cccc(Cl)c5)on4)cc3)n2)cc1 | growth | 85.2% (inactive) |

Field: next compound
Item under review: Nc1n[nH]c2cccc(C#Cc3cccc(NC(=O)c4ccc(N5CCOCC5)c(C(F)(F)F)c4)c3)c12 . Reported growth? 10.4% (inactive)
